IC50 listing for selected compounds.
- System Under Test: KRAS G13D (Homo sapiens (Human), UniProt P01116+P62937, G13D)
- Sequence (P01116 other isoform, or with tags, fused parts or gaps G13D): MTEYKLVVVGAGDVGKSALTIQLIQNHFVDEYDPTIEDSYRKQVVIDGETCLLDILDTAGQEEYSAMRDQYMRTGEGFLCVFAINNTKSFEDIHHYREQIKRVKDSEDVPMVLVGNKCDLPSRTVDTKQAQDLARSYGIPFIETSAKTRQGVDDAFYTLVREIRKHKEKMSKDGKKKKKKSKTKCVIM
- Sequence (P62937 whole entry): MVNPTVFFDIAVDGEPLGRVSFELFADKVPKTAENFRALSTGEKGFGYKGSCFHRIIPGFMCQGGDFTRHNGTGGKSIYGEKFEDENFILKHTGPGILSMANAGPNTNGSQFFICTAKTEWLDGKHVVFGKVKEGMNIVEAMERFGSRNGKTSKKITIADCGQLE
- Test Description: Ras-Raf disruption/FRET/MOA assay (BRAF RBD, Cyclophilin A)
- Assay type: biochemical
- Condition Details: read-out: KRAS G13D FRET data IC50

Worked cases, answers included:
Structure As Smiles	IC50
CCn1c(-c2cccnc2[C@H](C)OC)c2c3cc(ccc31)-c1csc(n1)C[C@H](NC(=O)[C@H](C(C)C)N(C)C(=O)N1CCO[C@@H](CN(C)C)C1)C(=O)N1CCC[C@H](N1)C(=O)OCC(C)(C)C2	100 to 1000 nM
CCn1c(-c2cccnc2[C@H](C)OC)c2c3cc(ccc31)-c1cc(O)cc(c1)C[C@H](NC(=O)[C@H](C(C)C)N(C)C(=O)[C@@H]1OCC[C@H]1c1ccccc1)C(=O)N1CCC[C@H](N1)C(=O)OCC(C)(C)C2	10 to 100 nM
CCn1c(-c2cccnc2[C@H](C)OC)c2c3cc(ccc31)-c1cc(O)cc(c1)C[C@H](NC(=O)[C@H](C(C)C)N(C)C(=O)[C@@H]1CCN(C(=O)OC)C1)C(=O)N1CCC[C@H](N1)C(=O)OCC(C)(C)C2	10 to 100 nM

# lookup: CCn1c(-c2cccnc2[C@H](C)OC)c2c3cc(ccc31)-c1csc(n1)C[C@H](NC(=O)[C@H](C(C)C)N(C)C(=O)N1CC(S(=O)(=O)N(C)C)C1)C(=O)N1CCC[C@H](N1)C(=O)OCC(C)(C)C2 on KRAS G13D (Homo sapiens (Human), UniProt P01116+P62937, G13D), IC50 = 100 to 1000 nM
